The following binders are shown together with reported IC50 values.
study.target: T1, HLA-A*0301 (human)
T1 construct: whole, on cells; Class I molecule on intact B cells (EKR); also called A3
method: cellular competition assay vs FL-labelled reference peptide on B cells; affinity category (high/good IC50<5 uM, intermediate 5-15 uM, low >15-50 uM)

# annotated cases, reported IC50 shown
>  <binder>
GTAKSVTCTY (also called A1 (117-126); A3 (117-126)) [p53 117-126 GTAKSVTCTY]

>  <IC50>
5 to 15 µM

$$$$
>  <binder>
RVRAMAIY (also called A3 (156-163)) [p53 156-163 RVRAMAIY]

>  <IC50>
5 to 15 µM

$$$$

Exam item: Need IC50 of GGSRAHSSHLK (also called A3 (360-370)) [p53 360-370 GGSRAHSSHLK] , thanks.
Marked response: 5 to 15 µM
